system-tested: MAP kinase-interacting serine/threonine-protein kinase 2 (Homo sapiens) (UniProt Q9HBH9)
Sequence (Q9HBH9 whole entry, looked up): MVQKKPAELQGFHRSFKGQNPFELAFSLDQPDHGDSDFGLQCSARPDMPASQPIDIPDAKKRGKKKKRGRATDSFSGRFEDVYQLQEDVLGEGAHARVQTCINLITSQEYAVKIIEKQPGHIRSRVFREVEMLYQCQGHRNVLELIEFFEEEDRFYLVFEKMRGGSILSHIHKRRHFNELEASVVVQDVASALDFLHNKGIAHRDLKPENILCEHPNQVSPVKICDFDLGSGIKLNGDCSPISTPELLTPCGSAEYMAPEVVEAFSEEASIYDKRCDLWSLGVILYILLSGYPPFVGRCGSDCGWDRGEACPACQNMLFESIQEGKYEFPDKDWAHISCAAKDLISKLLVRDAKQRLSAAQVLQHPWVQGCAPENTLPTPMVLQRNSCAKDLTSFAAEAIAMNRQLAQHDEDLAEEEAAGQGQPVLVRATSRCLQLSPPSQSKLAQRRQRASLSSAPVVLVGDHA
experimental-context: at 0.1 µM
Description: GSK_PKIS: MNK2 mean inhibition at 0.1 uM [Nanosyn]
measured-endpoint: inhibition (%)
The answer is to be given in %; state only the numeric part.

Example entries and their recorded answers appear below.
smi | unit-descriptor | measured
COC(=O)Nc1nc2ccc(Sc3ccc(NC(=O)Nc4cc(C(F)(F)F)ccc4F)cc3)cc2[nH]1 | % | 0.6
C/C(Nc1ccc(S(N)(=O)=O)cc1)=C1/C(=O)Nc2ccccc21 | % | -1.74
COc1cc(Nc2ncc3c(C)nc(-c4cccc(C(F)(F)F)c4)n3n2)cc(OC)c1OC | % | 2.94

Query: Please report the measured inhibition for C[C@@H](Oc1cc(-n2cnc3ccc(OC4CCN(C)CC4)cc32)sc1C(N)=O)c1ccccc1Cl
Result: 3.77

Query: Please report the measured inhibition for Clc1ccc(CNc2nccc(-c3cnn4ncccc34)n2)cc1
Result: 1.92
